experimental-system: Coagulation factor X (Homo sapiens, UniProt P00742)
Sequence (P00742 41-179 limits assumed): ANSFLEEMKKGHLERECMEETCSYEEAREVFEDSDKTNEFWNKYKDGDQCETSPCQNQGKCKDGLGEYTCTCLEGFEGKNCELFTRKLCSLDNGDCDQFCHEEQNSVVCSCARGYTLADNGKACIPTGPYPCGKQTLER
Sequence (P00742 235-488 limits assumed): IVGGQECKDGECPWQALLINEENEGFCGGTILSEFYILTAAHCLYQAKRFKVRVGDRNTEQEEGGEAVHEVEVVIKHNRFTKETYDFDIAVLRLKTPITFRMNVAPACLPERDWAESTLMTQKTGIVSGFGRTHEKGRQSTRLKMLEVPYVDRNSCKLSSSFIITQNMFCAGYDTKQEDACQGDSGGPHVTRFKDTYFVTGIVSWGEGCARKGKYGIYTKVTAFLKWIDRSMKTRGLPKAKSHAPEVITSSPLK
method-description: In vitro inhibitory activity against Coagulation factor X
pKi: −log10 of the molar value.
measure-name: pKi

CN(Cc1ccc(C(=O)Nc2ccc(Cl)cc2C(=O)Nc2ccc(Cl)cn2)cc1)C(=N)N; 10.00

1 = CN1CCN=C1N(C)Cc1ccc(C(=O)Nc2ccc(Cl)cc2C(=O)Nc2ccc(Cl)cn2)cc1
2 = C[N+](C)(C)Cc1ccc(C(=O)Nc2ccc(Cl)cc2C(=O)Nc2ccc(Cl)cn2)cc1
Inquiry: Endpoint returns whichever of 1 and 2 has the numerically higher pKi. Returns: label corresponding to the selected item.
Reply text: 1
(1: 9.52, 2: 9.00)

1 = N=C1NCCN1Cc1ccc(C(=O)Nc2ccc(Cl)cc2C(=O)Nc2ccc(Cl)cn2)cc1
2 = C/N=C(/N)N(C)Cc1ccc(C(=O)Nc2ccc(Cl)cc2C(=O)Nc2ccc(Cl)cn2)cc1
Inquiry: Endpoint returns whichever of 1 and 2 has the numerically higher pKi. Returns: label corresponding to the selected item.
Reply text: 2

###

experimental-system: Coagulation factor X (Homo sapiens, UniProt P00742)
method-description: Inhibitory activity against Coagulation factor X
measure-name: pKi
Here pKi is given on a logarithmic scale as minus log10 of the concentration in mol/L.

Inquiry: Which measured pKi belongs to CN(C)NCc1ccc(C(=O)Nc2ccc(Cl)cc2C(=O)Nc2ccc(Cl)cn2)cc1 , tested on Coagulation factor X (Homo sapiens, UniProt P00742)?
Reply text: 9.52

###

Measured IC50 of individual entries
experimental-system: Serine protease 1 (Homo sapiens)
Sequence (P07477 whole entry): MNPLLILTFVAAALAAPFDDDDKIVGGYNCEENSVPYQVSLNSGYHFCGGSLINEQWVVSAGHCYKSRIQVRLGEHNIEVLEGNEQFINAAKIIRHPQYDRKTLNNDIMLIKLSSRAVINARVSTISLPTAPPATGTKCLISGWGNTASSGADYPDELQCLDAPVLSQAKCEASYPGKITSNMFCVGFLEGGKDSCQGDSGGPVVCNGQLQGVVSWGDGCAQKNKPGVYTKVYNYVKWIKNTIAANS

NC1=NCCCN1Cc1ccc(C(=O)Nc2ccc(Cl)cc2C(=O)Nc2ccc(Cl)cn2)cc1; > 11 µM
O=C(Nc1ccc(Cl)cc1C(=O)Nc1ccc(Cl)cn1)c1ccc(CN2CCCCC2)cc1; > 11 µM

Switching to the query record.
Inquiry: Which measured IC50 belongs to N=C1NCCN1Cc1ccc(C(=O)Nc2ccc(Cl)cc2C(=O)Nc2ccc(Cl)cn2)cc1 , tested on Serine protease 1 (Homo sapiens)?
Reply text: > 11 µM

###

experimental-system: Coagulation factor X (Homo sapiens, UniProt P00742)
measure-name: IC50 (nM)

N=C(N)NCc1ccc(C(=O)Nc2ccc(Cl)cc2C(=O)Nc2ccc(Cl)cn2)cc1; 1.4
C[N+](C)(C)Cc1ccc(C(=O)Nc2ccc(Cl)cc2C(=O)Nc2ccc(Cl)cn2)cc1; 0.8
CC(=N)N1CCN(Cc2ccc(C(=O)Nc3ccc(Cl)cc3C(=O)Nc3ccc(Cl)cn3)cc2)CC1; 5

I = CC(=O)NNCc1ccc(C(=O)Nc2ccc(Cl)cc2C(=O)Nc2ccc(Cl)cn2)cc1
II = CN1CCN=C1N(C)Cc1ccc(C(=O)Nc2ccc(Cl)cc2C(=O)Nc2ccc(Cl)cn2)cc1
Inquiry: Given the two records I and II , choose the one whose IC50 value is lower. Returns: label corresponding to the selected item.
Reply text: II
(II: 0.3 nM, I: 40 nM)

###

method-description: Oral bioavailability in rat (dose 6 mg/kg)
Type: ADME, organism-based
run-conditions: in vivo
Measured bioavailability of individual entries

Would you please look over these solved cases?
N=C1OCCN1Cc1ccc(C(=O)Nc2ccc(Cl)cc2C(=O)Nc2ccc(Cl)cn2)cc1; 44%
CC(=N)N(C)Cc1ccc(C(=O)Nc2ccc(Cl)cc2C(=O)Nc2ccc(Cl)cn2)cc1; < 1%
CN(C)NCc1ccc(C(=O)Nc2ccc(Cl)cc2C(=O)Nc2ccc(Cl)cn2)cc1; 4%
CN1CCN=C1N(C)Cc1ccc(C(=O)Nc2ccc(Cl)cc2C(=O)Nc2ccc(Cl)cn2)cc1; < 1%
C[N+](C)(C)Cc1ccc(C(=O)Nc2ccc(Cl)cc2C(=O)Nc2ccc(Cl)cn2)cc1; < 1%

Inquiry: What value of bioavailability has been reported for the following molecule? N=C1NCCN1Cc1ccc(C(=O)Nc2ccc(Cl)cc2C(=O)Nc2ccc(Cl)cn2)cc1
Reply text: < 1%

Inquiry: Here is the next molecule: CN(Cc1ccc(C(=O)Nc2ccc(Cl)cc2C(=O)Nc2ccc(Cl)cn2)cc1)C(=N)N
Reply text: < 1%
